# assayTarget: CYP2C19 (Homo sapiens)
# Sequence (P33261 whole entry): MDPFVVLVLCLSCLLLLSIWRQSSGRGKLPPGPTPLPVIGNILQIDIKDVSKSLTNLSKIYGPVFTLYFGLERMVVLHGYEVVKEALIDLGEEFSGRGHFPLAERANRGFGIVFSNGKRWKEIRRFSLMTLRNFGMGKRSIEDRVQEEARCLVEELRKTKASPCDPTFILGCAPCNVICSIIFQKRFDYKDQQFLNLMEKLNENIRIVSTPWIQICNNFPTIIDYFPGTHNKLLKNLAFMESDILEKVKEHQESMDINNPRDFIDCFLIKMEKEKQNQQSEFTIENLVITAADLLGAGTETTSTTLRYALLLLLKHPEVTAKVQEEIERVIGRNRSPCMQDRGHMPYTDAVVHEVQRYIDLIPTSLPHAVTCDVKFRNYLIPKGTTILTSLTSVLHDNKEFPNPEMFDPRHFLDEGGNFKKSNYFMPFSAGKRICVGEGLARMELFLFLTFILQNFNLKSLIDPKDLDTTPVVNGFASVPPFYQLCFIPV
# test: biochemical
# conditionLabel: IC50,u (IC50 unbound), HLM, corrected for fraction unbound
pIC50: −log10 of the molar value.
assayReadout: pIC50

{"querySmiles": "CCC(=O)C(C[C@H](C)N(C)C)(c1ccccc1)c1ccccc1", "endpointResult": 3.82}

----------
# assayTarget: CYP2D6 (Homo sapiens, UniProt P10635)
# Sequence (P10635 whole entry): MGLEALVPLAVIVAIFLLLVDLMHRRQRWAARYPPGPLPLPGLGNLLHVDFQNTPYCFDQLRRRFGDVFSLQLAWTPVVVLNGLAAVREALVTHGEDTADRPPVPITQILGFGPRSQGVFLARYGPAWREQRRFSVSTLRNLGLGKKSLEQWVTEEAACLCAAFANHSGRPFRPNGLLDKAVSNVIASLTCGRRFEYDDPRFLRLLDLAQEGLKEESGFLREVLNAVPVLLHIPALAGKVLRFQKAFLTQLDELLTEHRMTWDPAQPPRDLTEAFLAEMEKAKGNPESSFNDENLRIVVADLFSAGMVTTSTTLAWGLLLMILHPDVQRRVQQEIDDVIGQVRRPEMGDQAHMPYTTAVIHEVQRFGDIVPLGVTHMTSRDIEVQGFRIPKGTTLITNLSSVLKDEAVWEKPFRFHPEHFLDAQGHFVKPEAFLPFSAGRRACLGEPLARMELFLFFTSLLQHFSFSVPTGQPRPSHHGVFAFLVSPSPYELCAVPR
# test: Study 2
# conditionLabel: human, plasma, oral, 30 mg
AUC(0-inf) listing for selected compounds.

{"compound": "CN1CC[C@@]23CCCC[C@@H]2[C@@H]1Cc1ccc(O)cc13 [dextrorphan]", "AUC(0-inf) [ng·h/mL]": 27.2}
{"compound": "COc1ccc2c(c1)[C@]13CCCC[C@@H]1[C@H](C2)N(C)CC3 [dextromethorphan]", "AUC(0-inf) [ng·h/mL]": 31.2}
